Where do these numbers come from? They come from ChEMBL document CHEMBL2412968.

System: Plasmodium falciparum
testMethodNotes: Antiplasmodial activity chloroquine-sensitive Plasmodium falciparum 3D7 infected in human A+ erythrocytes assessed as reduction of [3H]hypoxanthine incorporation after 24 hrs by scintillation counting
Type: functional, organism-based
readoutType: IC50 (nM)

In [3]: df
Out[3]:
                                   compound          assayedsystem  unitstring  recordedmeasurement
0  CN(C)C(c1cccc(Nc2ccnc3cc(Cl)ccc23)c1)c1nnnn1CCN1CCOCC1 (stereo unspecified)  Plasmodium falciparum          nM                  379
1  CC(C)(C)n1nnnc1C(c1cccc(Nc2ccnc3cc(Cl)ccc23)c1)N1CCCC1 (stereo unspecified)  Plasmodium falciparum          nM                   10
2  CN(C)C(c1ccccc1Nc1ccnc2cc(Cl)ccc12)c1nnnn1C(C)(C)C (stereo unspecified)  Plasmodium falciparum          nM                 3500
3  Clc1ccc2c(Nc3cccc(C(c4nnnn4CCN4CCOCC4)N4CCCC4)c3)ccnc2c1 (stereo unspecified)  Plasmodium falciparum          nM                  220
4  CN(C)C(c1cccc(Nc2ccnc3cc(Cl)ccc23)c1)c1nnn[nH]1 (stereo unspecified)  Plasmodium falciparum          nM                  487
5  CCN(CC)C(c1cccc(Nc2ccnc3cc(Cl)ccc23)c1)c1nnn[nH]1 (stereo unspecified)  Plasmodium falciparum          nM                  164

---

// IC50 lookup, one value per entry
assayedSystem: Cytochrome P450 2E1 (Homo sapiens, UniProt P05181)
Sequence (P05181 whole entry): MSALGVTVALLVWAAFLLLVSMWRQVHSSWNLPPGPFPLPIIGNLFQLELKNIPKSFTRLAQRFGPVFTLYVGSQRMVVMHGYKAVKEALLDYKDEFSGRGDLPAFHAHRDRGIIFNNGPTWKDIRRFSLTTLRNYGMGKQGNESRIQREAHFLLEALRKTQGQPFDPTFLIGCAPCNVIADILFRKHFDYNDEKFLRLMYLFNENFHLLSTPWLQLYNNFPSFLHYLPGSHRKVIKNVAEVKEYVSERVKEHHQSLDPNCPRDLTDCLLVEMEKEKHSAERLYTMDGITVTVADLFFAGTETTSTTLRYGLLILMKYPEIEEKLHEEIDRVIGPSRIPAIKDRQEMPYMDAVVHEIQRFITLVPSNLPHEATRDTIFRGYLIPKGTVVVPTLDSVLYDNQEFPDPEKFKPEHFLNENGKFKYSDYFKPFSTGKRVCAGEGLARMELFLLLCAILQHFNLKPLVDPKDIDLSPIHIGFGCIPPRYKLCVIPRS
testMethodNotes: Inhibition of CYP2E1 in human liver microsomes assessed as chlorzoxazone 6-hydroxylation after 20 mins by LC-MS analysis
Type: ADME, Microsome
readoutType: IC50

>>> df
                                   compound                             assayedsystem  readouttype  recordedmeasurement
0  CC(C)(C)n1nnnc1C(c1cccc(Nc2ccnc3cc(Cl)ccc23)c1)N1CCCC1 (configuration not stated)  Cytochrome P450 2E1 (Homo sapiens, UniProt P05181)         IC50              > 20 µM
1  CCN(CC)C(c1cccc(Nc2ccnc3cc(Cl)ccc23)c1)c1nnnn1C(C)(C)C (configuration not stated)  Cytochrome P450 2E1 (Homo sapiens, UniProt P05181)         IC50              > 20 µM

---

// IC50 lookup, one value per entry
assayedSystem: Cytochrome P450 2A6 (Homo sapiens)
Sequence (P11509 whole entry): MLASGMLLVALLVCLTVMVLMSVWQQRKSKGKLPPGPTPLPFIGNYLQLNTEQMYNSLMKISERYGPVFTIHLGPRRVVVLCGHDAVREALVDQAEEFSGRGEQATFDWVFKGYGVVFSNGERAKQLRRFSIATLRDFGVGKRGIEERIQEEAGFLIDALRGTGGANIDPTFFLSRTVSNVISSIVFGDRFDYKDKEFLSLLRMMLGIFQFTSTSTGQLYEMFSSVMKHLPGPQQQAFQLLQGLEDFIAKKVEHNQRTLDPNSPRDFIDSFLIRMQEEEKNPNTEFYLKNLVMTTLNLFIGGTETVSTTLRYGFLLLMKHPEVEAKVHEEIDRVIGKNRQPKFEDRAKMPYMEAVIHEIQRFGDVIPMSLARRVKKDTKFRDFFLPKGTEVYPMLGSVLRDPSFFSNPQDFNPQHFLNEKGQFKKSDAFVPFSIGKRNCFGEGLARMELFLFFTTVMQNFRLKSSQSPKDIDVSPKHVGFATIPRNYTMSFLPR
readoutType: IC50

>>> print(df.to_string())
                                   compound  recordedmeasurement
0  CCN(CC)C(c1cccc(Nc2ccnc3cc(Cl)ccc23)c1)c1nnnn1C(C)(C)C (configuration not stated)              > 20 µM
1  CC(C)(C)n1nnnc1C(c1cccc(Nc2ccnc3cc(Cl)ccc23)c1)N1CCCC1 (configuration not stated)              > 20 µM
